The compounds below each have a reported Ki tested on Serine/threonine-protein kinase PLK1 (Homo sapiens); the values come from various publications.

Sample records with Ki:
compound	value-kind	test-value
CC(=O)Nc1c(F)ccc(Nc2ncc3c(n2)N(C2CCCC2)CC(C)(C)C(=O)N3C)c1F	Ki	10 to 100 nM
CC(=O)Nc1ccc(C)c(Nc2ncc3c(n2)N(C2CCCC2)CC(C)(C)C(=O)N3C)c1	Ki	< 10 nM
C[C@H](Nc1ncc(C#N)c(-c2c[nH]c3ncc(Cl)cc23)n1)C(=O)NCC(F)(F)F	Ki	> 40 nM
N#Cc1cnc(NCC2CCCCC2)nc1-c1c[nH]c2ncc(C(F)(F)F)cc12	Ki	3 to 40 nM
CN1C(=O)C(C)(C)CN(C2CCCC2)c2nc(Nc3ccc4[nH]ncc4c3)ncc21	Ki	10 to 100 nM

Noted Ki for COc1cc(C(=O)NC[C@H](O)CO)ccc1Nc1ncc2c(n1)N(C1CCCC1)CC(C)(C)C(=O)N2C , tested on Serine/threonine-protein kinase PLK1 (Homo sapiens): < 10 nM

Noted Ki for Cc1nc(N[C@@H]2CC[C@@H](n3ccc(C(F)(F)F)n3)C2)nc2c1NC(=O)[C@H](C)N2C (single isomer, unassigned) , tested on Serine/threonine-protein kinase PLK1 (Homo sapiens): > 4000 nM

* * *

The compounds below each have a reported pKi tested on Serine/threonine-protein kinase PLK1 (Homo sapiens); the values come from various publications.
pKi: −log10 of the molar value.

Sample records with pKi:
compound	test-target	pKi
CNC(=O)c1ccc(Nc2ncc3c(n2)N([C@@H]2CCOC2)CC(C)(C)C(=O)N3C)c(OC)c1	Serine/threonine-protein kinase PLK1 (Homo sapiens)	> 8.00
CC(Nc1ncc(C#N)c(-c2c[nH]c3ncc(C(F)(F)F)cc23)n1)c1ccc(N2CCCN(C)CC2)cc1 (stereo not drawn)	Serine/threonine-protein kinase PLK1 (Homo sapiens)	> 8.52
Cc1ccc(F)cc1NC(=O)N1Cc2c(NC(=O)C3([Si](C)(C)C)CCC3)n[nH]c2C1(C)C	Serine/threonine-protein kinase PLK1 (Homo sapiens)	≤ 5.30

Noted pKi for COc1cccc(F)c1NC(=O)N1Cc2c(NC(=O)C3([Si](C)(C)C)CCC3)n[nH]c2C1(C)C , tested on Serine/threonine-protein kinase PLK1 (Homo sapiens): ≤ 5.30

Noted pKi for COc1cccc(CNc2ncc(C#N)c(-c3c[nH]c4ncc(C(F)(F)F)cc34)n2)c1 , tested on Serine/threonine-protein kinase PLK1 (Homo sapiens): < 7.40

Noted pKi for CNC(=O)c1ccc(Nc2ncc3c(n2)N(CC2CC2)CC(C)(C)C(=O)N3C)c(OC)c1 , tested on Serine/threonine-protein kinase PLK1 (Homo sapiens): > 8.00

Noted pKi for CCCC(C)Nc1ncc(C#N)c(-c2c[nH]c3ncc(C(F)(F)F)cc23)n1 (stereo not drawn) , tested on Serine/threonine-protein kinase PLK1 (Homo sapiens): 7.40 to 8.52

Noted pKi for COc1cc(C(=O)NC2(CO)CCCC2)ccc1Nc1ncc2c(n1)N(C1CCCC1)CC(C)(C)C(=O)N2C , tested on Serine/threonine-protein kinase PLK1 (Homo sapiens): > 8.00

Noted pKi for CC1(C)c2[nH]nc(NC(=O)C3([Si](C)(C)C)CCC3)c2CN1C(=O)Nc1c(F)cccc1C(F)(F)F , tested on Serine/threonine-protein kinase PLK1 (Homo sapiens): ≤ 5.30

Noted pKi for CC[C@@H](O)C(=O)N1CCC([C@@H](C)Nc2ncc(C#N)c(-c3c[nH]c4ncc(C(F)(F)F)cc34)n2)CC1 , tested on Serine/threonine-protein kinase PLK1 (Homo sapiens): > 8.52

* * *

The molecules below each have a reported Ki tested on Serine/threonine-protein kinase PLK1 (Homo sapiens, UniProt P53350); the values come from various publications.

Sample records with Ki:
molecule	test-target	test-value
CNC(=O)c1ccc(Nc2ncc3c(n2)N(CC(F)(F)C(F)(F)F)CC(C)(C)C(=O)N3C)c(OC)c1	Serine/threonine-protein kinase PLK1 (Homo sapiens, UniProt P53350)	10 to 100 nM
CC(C)[C@@H](O)C(=O)N1CCC([C@@H](C)Nc2ncc(C#N)c(-c3c[nH]c4ncc(C(F)(F)F)cc34)n2)CC1	Serine/threonine-protein kinase PLK1 (Homo sapiens, UniProt P53350)	< 3 nM
CC1(C)c2[nH]nc(NC(=O)C3([Si](C)(C)C)CCC3)c2CN1C(=O)Nc1c(F)cccc1C#N	Serine/threonine-protein kinase PLK1 (Homo sapiens, UniProt P53350)	≥ 5000 nM
CNCC(=O)N1CCC(C(C)Nc2ncc(C#N)c(-c3c[nH]c4ncc(C(F)(F)F)cc34)n2)CC1 (stereo not drawn)	Serine/threonine-protein kinase PLK1 (Homo sapiens, UniProt P53350)	< 3 nM
N#Cc1cnc(Sc2ccc(Cl)cc2)nc1-c1c[nH]c2ncc(C(F)(F)F)cc12	Serine/threonine-protein kinase PLK1 (Homo sapiens, UniProt P53350)	> 40 nM

Data point: N#Cc1cnc(NC2(C(=O)NCC(F)(F)F)CCCCC2)nc1-c1c[nH]c2ncc(Cl)cc12 ; Ki = 3 to 40 nM

Data point: C[C@@H](Nc1ncc(C#N)c(-c2c[nH]c3ncc(C(F)(F)F)cc23)n1)c1ccc(N2CC[C@H](N3CCCC3)C2)nc1 ; Ki = 3 to 40 nM

Data point: COc1cc(C(=O)NC(C)C)ccc1Nc1ncc2c(n1)N(C1CCCC1)CC1(CC1)C(=O)N2C ; Ki = < 10 nM

* * *

The compounds below each have a reported pKi tested on Serine/threonine-protein kinase PLK1 (Homo sapiens); the values come from various publications.
pKi: −log10 of the molar value.

Sample records with pKi:
chemical-smiles	test-target	pKi
C[C@H](CO)Nc1ncc(C#N)c(-c2c[nH]c3ncc(C(F)(F)F)cc23)n1	Serine/threonine-protein kinase PLK1 (Homo sapiens)	7.40 to 8.52
Cc1nc(N[C@H]2C[C@H](Oc3ccnc(C(F)(F)F)c3)C2)nc2c1NC(=O)[C@H](C)N2C	Serine/threonine-protein kinase PLK1 (Homo sapiens)	< 5.40
CN1C(=O)C(C)(C)CN(C2CCCC2)c2nc(Nc3ccc4[nH]c(=O)[nH]c4c3)ncc21	Serine/threonine-protein kinase PLK1 (Homo sapiens)	> 8.00
CC(=O)Nc1ccc(Nc2ncc3c(n2)N(C2CCCC2)CC(C)(C)C(=O)N3C)cc1	Serine/threonine-protein kinase PLK1 (Homo sapiens)	7.00 to 8.00
CC(C)N1CCN(c2ccc([C@@H](C)Nc3ncc(C#N)c(-c4c[nH]c5ncc(C(F)(F)F)cc45)n3)cc2)CC1	Serine/threonine-protein kinase PLK1 (Homo sapiens)	> 8.52
COc1cc(C(=O)NCc2cc(C)on2)ccc1Nc1ncc2c(n1)N(C1CCCC1)CC(C)(C)C(=O)N2C	Serine/threonine-protein kinase PLK1 (Homo sapiens)	> 8.00

Please turn your attention to the following entry.
Data point: N#Cc1cnc(NCc2cccc(Cl)c2)nc1-c1c[nH]c2ncc(C(F)(F)F)cc12 ; pKi = < 7.40

* * *

The compounds below each have a reported Ki tested on Serine/threonine-protein kinase PLK1 (Homo sapiens, UniProt P53350); the values come from various publications.

compound	test-target	test-value
CNC(=O)c1ccc(Nc2ncc3c(n2)N(C2CCC2)CC(C)(C)C(=O)N3C)c(OC)c1	Serine/threonine-protein kinase PLK1 (Homo sapiens, UniProt P53350)	< 10 nM
COc1cc(C(=O)NC2CCN(C(C)(C)C)CC2)ccc1Nc1ncc2c(n1)N(C1CCCC1)CC(C)(C)C(=O)N2C	Serine/threonine-protein kinase PLK1 (Homo sapiens, UniProt P53350)	< 10 nM
CC(Nc1ncc(C#N)c(-c2c[nH]c3ncc(C(F)(F)F)cc23)n1)C1CCN(S(C)(=O)=O)CC1 (stereo not shown)	Serine/threonine-protein kinase PLK1 (Homo sapiens, UniProt P53350)	< 3 nM

Noted Ki for C[C@@H](Nc1ncc(C#N)c(-c2c[nH]c3ncc(C(F)(F)F)cc23)n1)c1ccc(O[C@H]2CCN(C)C2)cc1 , tested on Serine/threonine-protein kinase PLK1 (Homo sapiens, UniProt P53350): < 3 nM

Noted Ki for CC1(C)c2[nH]nc(NC(=O)C3([Si](C)(C)C)CC3)c2CN1C(=O)Nc1c(F)cccc1OC(F)F , tested on Serine/threonine-protein kinase PLK1 (Homo sapiens, UniProt P53350): ≥ 5000 nM

Noted Ki for C[C@@H](Nc1ncc(C#N)c(-c2c[nH]c3ncc(C(F)(F)F)cc23)n1)[C@H]1CC[C@H](NC(=O)CN)CC1 , tested on Serine/threonine-protein kinase PLK1 (Homo sapiens, UniProt P53350): < 3 nM

Noted Ki for CCN(CCN(C)C)c1ccc([C@@H](C)Nc2ncc(C#N)c(-c3c[nH]c4ncc(C(F)(F)F)cc34)n2)cn1 , tested on Serine/threonine-protein kinase PLK1 (Homo sapiens, UniProt P53350): < 3 nM

Noted Ki for CCS(=O)(=O)Nc1ccc([C@@H](C)Nc2ncc(C#N)c(-c3c[nH]c4ncc(C(F)(F)F)cc34)n2)cc1 , tested on Serine/threonine-protein kinase PLK1 (Homo sapiens, UniProt P53350): < 3 nM

Noted Ki for CN1C(=O)C(C)(C)CN(C2CCCC2)c2nc(Nc3ccc4c(cnn4C)c3)ncc21 , tested on Serine/threonine-protein kinase PLK1 (Homo sapiens, UniProt P53350): 10 to 100 nM

Noted Ki for C[C@@H](Nc1ncc(C#N)c(-c2c[nH]c3ncc(C(F)(F)F)cc23)n1)c1ccc(NC(=O)C2CC2)cc1 , tested on Serine/threonine-protein kinase PLK1 (Homo sapiens, UniProt P53350): < 3 nM

Noted Ki for CC1(C)c2[nH]nc(NC(=O)C3([Si](C)(C)C)CC3)c2CN1C(=O)Nc1c(F)ccc2ccoc12 , tested on Serine/threonine-protein kinase PLK1 (Homo sapiens, UniProt P53350): ≥ 5000 nM
